The origin of these recorded values is PubChem BioAssay AID1531.

# experimental-system: Mitogen-activated protein kinase kinase kinase 2 (Homo sapiens)
# assay-notes: modulators of MEK5 binding to wildtype MEKK2, primary screen, biochemical, multiplex bead flow cytometry, Alexa488-MEK5 (AID 1531)
# experimental-parameters: Alexa488-MEK5 binding to MEKK2 WT, at 10 µM, actives lie on both sides
About 3,300 (1.1%) of roughly 290,000 compounds were called active. No stated cut-off is given here; in the data, active means binding response below about 67% or above about 130%; inconclusive means no clear call, values can overlap the other calls; inactive means in between. The sample holds actives, similar compounds and a random draw of the others, so the mix is not that of the screen.
Labels: Yes (active), No (inactive)

- molecule: "CN(C)CC(O)COc1ccc(C(C)(C)c2ccc(OCC(O)CN(C)C)cc2)cc1 (centres undefined)"
  label: "Yes"
- molecule: "COC(C[C@@H](O)C[C@H](O)[C@H](C)OCc1ccccc1)OC"
  label: "No"
- molecule: "CC1(OC(=O)CCc2ccccc2)C(=O)C=C2C=C(c3ccc(C#N)cc3)N(CCc3ccccn3)C=C2C1=O (centres undefined)"
  label: "No"
- molecule: "COC(=O)c1c(NC(=O)COC(=O)[C@@H](NS(=O)(=O)c2ccccc2)C(C)C)sc2c1CCC2"
  label: "Yes"
- molecule: "COc1ccc(NC(=O)C/C(C)=N/NC(=O)c2cnccn2)cc1Cl"
  label: "No"
- molecule: "COc1ccc(N2CCN(C3CCCCC3NS(=O)(=O)c3ccccc3)CC2)cc1 (centres undefined)"
  label: "No"
- molecule: "C=CCN1C=C2C(=O)C(C)(OC(=O)CCc3ccccc3)C(=O)C=C2C=C1c1ccc(C#N)cc1 (centres undefined)"
  label: "Yes"
- molecule: "COC(=O)CCCC1=CC2=CC(=O)C(C)(OC(=O)c3cccs3)C(=O)C2=CN1c1cccc(C#N)c1 (centres undefined)"
  label: "No"
- molecule: "Cc1cc2cc(CNC(=O)c3cccs3)ccc2[nH]1"
  label: "Yes"

* * *

# experimental-system: Mitogen-activated protein kinase kinase kinase 2 (Homo sapiens) (UniProt Q9Y2U5)
# assay-notes: modulators of MEK5 binding to wildtype MEKK2, primary screen, biochemical, multiplex bead flow cytometry, Alexa488-MEK5 (AID 1531)
# experimental-parameters: Alexa488-MEK5 binding to MEKK2 WT, at 10 µM, actives lie on both sides
Screen size: about 290,000 compounds; about 3,300 (1.1%) were called active. No stated cut-off is given here; in the data, active means binding response below about 67% or above about 130%; inconclusive means no clear call, values can overlap the other calls; inactive means in between. For the sample, actives were picked, then their nearest neighbours and some compounds at random.
Labels: active, inactive

- compound: "Cc1cccc(C)c1NC(=O)N1CC(C)OC(C)C1 (configuration not stated)"
  label: "inactive"
- compound: "COc1ccc(CC(=O)N/N=C(\\C)c2ccccn2)cc1"
  label: "inactive"
- compound: "COCCCN1C(=O)c2ccc(C(=O)OCC(=O)NCc3ccccc3OC)cc2C1=O"
  label: "inactive"
- compound: "CC(C)(c1ccccc1)c1ccc(OCCN2CCCC2)cc1"
  label: "inactive"
- compound: "Cc1ccc(CNS(=O)(=O)c2ccc3c(c2)N(C)CCO3)cc1"
  label: "inactive"
- compound: "Cc1cccc(OCC(=O)NCCCNC(=O)c2ccccn2)c1"
  label: "inactive"
- compound: "Cc1cccc(N(C(=O)c2csnn2)C(C(=O)NCc2ccccc2)c2ccncc2)c1 (configuration not stated)"
  label: "inactive"
- compound: "O=C(O)CSc1c2c(nc3cc(C(=O)Nc4cccc(C(F)(F)F)c4)ccc13)CCCC2"
  label: "inactive"
- compound: "CSc1nnc(NC(=O)c2nc(S(=O)(=O)Cc3ccc(C)cc3)ncc2Cl)s1"
  label: "inactive"
- compound: "CCc1cccc(C)c1NC(=S)N(CCCN1CCN(C)CC1)Cc1cccs1"
  label: "inactive"
- compound: "N=c1c2c(-c3ccccc3)c(-c3ccccc3)oc2ncn1Cc1ccco1"
  label: "inactive"
- compound: "CN(CCc1ccccc1)c1ccc([N+](=O)[O-])cn1"
  label: "inactive"
- compound: "Cc1nc(/N=C(\\N)NC(=O)NC2CCCCC2)nc2ccccc12"
  label: "inactive"
- compound: "CCOc1ccc(/C=C2\\SC(=S)N(NC(=O)c3ccncc3)C2=O)cc1OC"
  label: "inactive"
- compound: "CC/S(CC1CC1(Cl)Cl)=N\\S(=O)(=O)c1ccc(C)cc1 (configuration not stated)"
  label: "inactive"
- compound: "CCOc1ccc(CNC(=O)C2CCCN(c3nnc(C)c4c(C)n(-c5ccccc5)nc34)C2)cc1 (configuration not stated)"
  label: "inactive"
- compound: "COc1ccc(N2CCN(CCNC(=O)Nc3cc(Cl)ccc3Cl)CC2)cc1"
  label: "inactive"
- compound: "Cc1cccc(C)c1NC(=O)C1(C)c2cccc[n+]2CC(=O)N1Cc1cccs1 (configuration not stated)"
  label: "active"
- compound: "Cc1cccc(CCNC(=O)Cn2ncc3c([nH]c4ccc(C)cc43)c2=O)c1"
  label: "inactive"
- compound: "Cc1cc(S(=O)(=O)c2cc3ccc(O)c(C)c3oc2=O)ccc1F"
  label: "inactive"
- compound: "Cc1cccc(Nc2nc(NCCO)nc(N3CCCC3)n2)c1"
  label: "inactive"
- compound: "CC(=O)Oc1ccc(-c2nc3c(C)cccc3c(=O)o2)cc1"
  label: "inactive"
